Tested on: SK-MEL-28
procedure_summary: NCI tumour cell line growth inhibition, 48 h
Activity calls are given as the source filed them. No stated cut-off is given here; in the data, active = GI50 up to about 1.1 µM and inactive = higher.
property_measured: GI50

> print(dat)
                                    compound  reported.measurement
 1  CCOC(=O)C(SCCO)C(C(=O)OCC)n1cc(C)c(=O)[nH]c1=O (stereo unspecified)    19.4 µM (inactive)
 2  c1ccc(/N=C2/SC3=Nc4cccc5cccc(c45)N3/C2=N/c2ccccc2)cc1   > 100 µM (inactive)
 3  N#CC(NNC(=O)Cc1ccccc1)c1ccccc1O (stereo unspecified)    26.2 µM (inactive)
 4  CC1(C)C2CCC3(OCCO3)C1C(O)C2 (stereo unspecified)   > 100 µM (inactive)
 5  Cc1ccc([N+](=O)[O-])cc1S(=O)(=O)Nc1ccc(C2=NNC(c3cccs3)C2)cc1 (stereo unspecified)    48.5 µM (inactive)
 6  Cn1c(COC(=O)Nc2ccccc2)c(COC(=O)Nc2ccccc2)c2ccc3cc(Cl)c(Cl)cc3c21    3.61 µM (inactive)
 7  COC(=O)C[C@H]1CCC2(OCCO2)[C@]1(C)C(=O)OC   > 100 µM (inactive)
 8  CCOC(=O)c1sc2c(c1OC(=O)c1cc(OC)c(OC)c(OC)c1)c(=O)n(-c1ccccc1)c(=S)n2-c1ccccc1   > 100 µM (inactive)
 9  NC(CCC(=O)c1ccccn1)C(=O)O (stereo unspecified)   > 100 µM (inactive)
10       CC(C)O/N=C/c1cc(NC(=S)OC(C)C)ccc1Cl  > 62.2 µM (inactive)
11              COc1ccc(CCNC(=O)CCCCCO)cc1OC   > 100 µM (inactive)

The reported numbers originate from ChEMBL document CHEMBL1201862.
